biological target: Growth hormone secretagogue receptor type 1 (Homo sapiens); settings: HEK293, filed as inverse agonist, dose 1.0 10^-5M, time 30.0 min
Sequence (Q92847 whole entry): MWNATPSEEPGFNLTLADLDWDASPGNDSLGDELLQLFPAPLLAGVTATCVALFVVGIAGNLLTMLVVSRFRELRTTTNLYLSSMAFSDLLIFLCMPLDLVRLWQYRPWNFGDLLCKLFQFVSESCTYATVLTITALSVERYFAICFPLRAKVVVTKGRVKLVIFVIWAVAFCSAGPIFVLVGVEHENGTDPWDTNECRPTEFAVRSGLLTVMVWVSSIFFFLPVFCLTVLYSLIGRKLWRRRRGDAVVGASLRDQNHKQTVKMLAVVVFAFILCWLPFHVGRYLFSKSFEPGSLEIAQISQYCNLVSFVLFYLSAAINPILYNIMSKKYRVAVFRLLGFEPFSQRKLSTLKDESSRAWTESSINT
Emax listing for selected compounds.
Measurement label: Emax (%)

1) COc1ccc(Cn2c(CCc3ccccc3)nnc2[C@@H](Cc2c[nH]c3ccccc23)NC(=O)CNC(=O)/C(C#N)=C/c2ccc(F)cc2)cc1
76
2) COc1ccc(Cn2c(CCc3ccccc3)nnc2[C@@H](Cc2c[nH]c3ccccc23)NC(=O)CNC(=O)/C(C#N)=C/c2ccc(N(C)C)cc2)cc1
78
3) CCN(CC)CCc1nnc([C@@H](Cc2c[nH]c3ccccc23)NC(=O)CNC(=O)/C(C#N)=C/c2ccc(OC)cc2)n1Cc1ccc(OC)cc1
69
4) COc1ccc(/C=C(\C#N)C(=O)N[C@@H](C)C(=O)N[C@H](Cc2c[nH]c3ccccc23)c2nnc(CCc3ccccc3)n2Cc2ccc(OC)cc2)cc1
78
5) COc1ccc(/C=C(\C#N)C(=O)NCCC(=O)N[C@H](Cc2c[nH]c3ccccc23)c2nnc(CCc3ccccc3)n2Cc2ccc(OC)cc2)cc1
75
6) COc1ccc(Cn2c(CCc3ccccc3)nnc2[C@@H](Cc2c[nH]c3ccccc23)NC(=O)CNC(=O)/C(C#N)=C/c2ccc(C)cc2)cc1
82
7) COc1ccc(Cn2c(CCN3CCOCC3)nnc2[C@@H](Cc2c[nH]c3ccccc23)NC(=O)CNC(=O)/C(C#N)=C/c2ccccc2)cc1
49
8) COc1ccc(Cn2c(CCc3ccccc3)nnc2[C@@H](Cc2c[nH]c3ccccc23)NC(=O)CNC(=O)/C(C#N)=C/c2c[nH]c3ccccc23)cc1
79
9) COc1ccc(CC(N)C(=O)NCC(=O)N[C@H](Cc2c[nH]c3ccccc23)c2nnc(CCc3ccccc3)n2Cc2ccc(OC)cc2)cc1 (single isomer, unassigned)
43
10) COc1ccc(/C=C(\C#N)C(=O)NCC(=O)N[C@H](Cc2c[nH]c3ccccc23)c2nnc(CCc3ccccc3)n2Cc2ccc(OC)cc2)cc1
86
11) COc1ccc(Cn2c(CCc3ccccc3)nnc2[C@@H](Cc2c[nH]c3ccccc23)NC(=O)CNC(=O)/C(C#N)=C/c2ccc(O)cc2)cc1
83
12) COc1ccc(Cn2c(CCN3CCOCC3)nnc2[C@@H](Cc2c[nH]c3ccccc23)NC(=O)CNC(=O)/C(C#N)=C/c2ccc(N(C)C)cc2)cc1
64
